# System: HL-60(TB) leukemia
# Assay overview: NCI tumour cell line growth inhibition, 48 h
Assign TGI to each entry below.

[
  {
    "Compound": "Cc1cccc(C(C)(C)C)c1NC(=O)C(=O)C(C(=O)/C=C\\c1ccccc1)C1OC(=O)c2ccccc21 (stereo not drawn)",
    "TGI": "> 100 µM"
  },
  {
    "Compound": "O=C1c2ccccc2C2(c3ccc(Cl)cc3)N[C@@H]3CCCC[C@@H]3N12 (stereo partly drawn)",
    "TGI": "> 100 µM"
  }
]

Please look at the following compound next.
State TGI (HL-60(TB) leukemia) of "CCN(Cc1cccc(OC)c1)c1ccc(CO)c(Cl)c1" .
51.7 µM

---

Please provide measured TGI for the entries that follow.
# Test system: SK-MEL-28 melanoma
# Assay overview: NCI tumour cell line growth inhibition, 48 h

A selection of reference data follows.
[
  {
    "Compound": "CCCOC1OC(CS(=O)(=O)O)C(OC(C)=O)C(OC(C)=O)C1OC(C)=O (centres undefined)",
    "Tested system": "SK-MEL-28 melanoma",
    "Result": "> 100 µM"
  },
  {
    "Compound": "CCn1c(O)c(C(=O)NC(C)c2ccc([N+](=O)[O-])cc2)c(=O)n(CC)c1=S (centres undefined)",
    "Tested system": "SK-MEL-28 melanoma",
    "Result": "17.6 µM"
  },
  {
    "Compound": "O=C1c2c(O)cccc2Cc2cccc(O)c21",
    "Tested system": "SK-MEL-28 melanoma",
    "Result": "3.75 µM"
  }
]

Hey, quick one: what's TGI for each of these?
1. Cc1cccc(-c2nc3c(C(=O)NCCN(C)C)cccc3[nH]2)c1
2. Cn1cnc(/C=C/C#N)c1
3. CC(C)N(C(=O)C12C3C4C5(C#N)C3C1(I)C5C42I)C(C)C (centres undefined)

3.46 µM
> 100 µM
> 100 µM

Lab note: each compound below needs its TGI filled in.
1. COC(C/C=C\C=C\CC/C=C/CC(C)/C=C/C(=C\C(=O)O)CC(=O)O)/C(C)=C\C=C(/C)C(=O)O (centres undefined)
2. Cc1ccccc1-c1c(N)nc(NC#N)nc1C(=O)Nc1ccccc1
3. OCc1cn(Cc2cccc(Cl)c2)c2ccccc12
4. CC(=O)OC1C(=O)C(O)C(C)OC1O[C@@H]1C[C@@]2(C)[C@@H]3CC=C4[C@@H](C[C@H](O)C(=O)C4(C)C)[C@]3(C)C(=O)C[C@]2(C)[C@H]1[C@@](C)(O)C(=O)/C=C/C(C)(C)O (some centres undefined)
5. COCCn1cc(-c2csc(-c3c[nH]c4ccccc34)n2)c2cccnc21
6. N#Cc1c(C(=O)c2ccccc2)cnn1-c1ccccc1
7. O=C1C(Cl)=C(Cl)C(=O)N1C1C2CC3CC(C2)CC1C3 (centres undefined)

> 100 µM
> 100 µM
60.9 µM
0.803 µM
> 100 µM
> 25 µM
> 100 µM

---

Would you mind telling me the reported GI50 of each entry?
# Test system: HOP-92 NSCLC
# Assay overview: NCI tumour cell line growth inhibition, 48 h

Consider the worked cases shown below.
[
  {
    "Compound": "COCCn1cc(-c2csc(-c3c[nH]c4ccccc34)n2)c2cccnc21",
    "GI50": "14.9 µM"
  },
  {
    "Compound": "Cc1cn(C2CC(F)C(CO)O2)c(=O)[nH]c1=O (centres undefined)",
    "GI50": "> 100 µM"
  },
  {
    "Compound": "C[C@]12CCC3[C@@H](C[C@@H]4SC(Nc5ccccc5)=N[C@@]45CC(=O)CC[C@]35C)[C@@H]1CCC2=O (some centres undefined)",
    "GI50": "18.7 µM"
  }
]

Jot down GI50 (HOP-92 NSCLC) of "COc1ccccc1-[n+]1cc(-c2ccc(-c3ccccc3)cc2)n2c1CCCCC2" .
0.184 µM
